Biological target: T1, T cell receptor (TCR) Vγ9 (TRGV9) (human, UniProt Q99603 21-122); further: test concentration or dose not given here
T1 chain (looked up): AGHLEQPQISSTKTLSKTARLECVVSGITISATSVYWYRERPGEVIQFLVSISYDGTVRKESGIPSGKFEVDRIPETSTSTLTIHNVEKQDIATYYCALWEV
Assay: cell-based or functional assay

{"binder": "VG9B36 (antibody, human IgG1, kappa, V domains shown) VH: QVQLVESGGGLVKPGGSLRLSCASSGFTFSSYGMYWVRQAPGKGLEWVSSISTGSSYIYYADSVKGRFTISRDNAKNSLYLQMNSLRAEDTAVYYCARDKGLAVTGYIMDVWGQGTTVTVSS VL: EIVLTQSPSSLSASVGDRVTITCQASQDISNYLNWYQQKPGKAPKLLIYDASNLETGVPSRFSGSGSGTDFTFTISSLQPEDIAIYYCQQYDNLPMYTFGQGTKVEIKR", "CD25+ (Vg9+ cells), flow staining": "29.1%"}
